Tested on: human colon adenocarcinoma cell line, LS 174T
Protocol Description: cells
Particulars: LS174T
Observation Type: IC50 (nM)

>>> assay_result("COC(=O)c1[nH]c2c(O)cc(NC(=O)c3cc4cc(OC)c(OC)c(OC)c4[nH]3)c(CCCl)c2c1C(=O)OC")
4

###

Test system: PC3 (human prostate cancer cells)
Protocol Description: cells
Type: cell-based
Particulars: Homo sapiens; PC3, 1 hour exposure
pIC50: −log10 of the molar value.
Observation Type: pIC50

>>> assay_result("COC(=O)c1[nH]c2c(O)cc(NC(=O)c3cc4cc(OC)c(OC)c(OC)c4[nH]3)c(CCCl)c2c1C(=O)OC [Compound 22]")
6.46
